- MEASURED_ON: 1-deoxy-D-xylulose 5-phosphate reductoisomerase (Synechocystis sp. (strain PCC 6803 / Kazusa))
- Sequence (Q55663 whole entry): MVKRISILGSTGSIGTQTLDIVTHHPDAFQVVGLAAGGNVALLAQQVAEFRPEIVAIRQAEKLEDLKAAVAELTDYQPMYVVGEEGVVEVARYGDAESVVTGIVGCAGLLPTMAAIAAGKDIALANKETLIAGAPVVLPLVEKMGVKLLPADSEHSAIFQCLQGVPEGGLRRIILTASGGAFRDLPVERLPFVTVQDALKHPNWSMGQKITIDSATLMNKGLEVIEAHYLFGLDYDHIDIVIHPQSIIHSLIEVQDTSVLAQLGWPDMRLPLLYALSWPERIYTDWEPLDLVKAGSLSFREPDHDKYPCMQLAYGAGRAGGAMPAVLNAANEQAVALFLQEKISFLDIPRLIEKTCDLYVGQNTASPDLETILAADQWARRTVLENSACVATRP
- METHOD: Binding affinity against Synechocystis strain PCC6803 DXP reductoisomerase
REPORTED_ENDPOINT: Ki (µM)

# LINE_NOTATION, Ki, µM
records = [
    ("CC(=O)[C@@H](O)[C@@H](O)COP(=O)(O)O", 180),
]

A: CC(=O)C[C@H](O)COP(=O)(O)O
B: CC(=O)[C@@H](O)CCOP(=O)(O)O
C: CCC(=O)[C@@H](O)[C@H](O)COP(=O)(O)O
D: O=CN(O)CCCP(=O)(O)O
E: NC(=O)[C@@H](O)[C@H](O)COP(=O)(O)O
Ascending sort, Ki. Would you mind listing the labels in the order requested? D, B, E, A, C
(D: 0.021 µM, B: 30 µM, E: 90 µM, A: 150 µM, C: 630 µM)

###

Sequence of the target: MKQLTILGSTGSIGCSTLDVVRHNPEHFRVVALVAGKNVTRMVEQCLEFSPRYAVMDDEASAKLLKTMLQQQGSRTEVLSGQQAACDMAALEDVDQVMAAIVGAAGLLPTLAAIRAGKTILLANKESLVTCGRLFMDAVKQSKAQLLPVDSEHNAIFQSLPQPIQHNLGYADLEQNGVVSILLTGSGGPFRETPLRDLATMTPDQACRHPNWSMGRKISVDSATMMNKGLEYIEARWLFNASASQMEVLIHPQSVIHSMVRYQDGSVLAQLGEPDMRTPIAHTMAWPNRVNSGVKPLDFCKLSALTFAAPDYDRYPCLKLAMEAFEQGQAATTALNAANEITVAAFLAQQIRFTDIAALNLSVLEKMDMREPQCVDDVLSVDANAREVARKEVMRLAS
REPORTED_ENDPOINT: Ki (µM)
Write down the numeric answer in µM and omit the unit.

For the compound CC(=O)C[C@H](O)COP(=O)(O)O , give its reported Ki. 800
